System: COLO 205 colon
Test: NCI-60 one-dose screen, 48 h
Settings: 10 µM unless noted
The panel holds about 83,000 compounds, 20% with a hit somewhere; the sample as a whole holds those more often. Calls of active or inactive are those of the source. The calls were made as follows: active = growth percent below 10; inactive = the rest.
Outcomes: True (active), False (inactive)

molecule=COc1cc(/C=C(/C)C[N+](=O)[O-])ccc1O system_name="COLO 205 colon" category=False
molecule=CCOC(=O)c1c(C)[nH]c(CO)c1C system_name="COLO 205 colon" category=False
molecule="CN(C)c1ccc(C(=C2C=CC(=[N+](C)C)C=C2)c2ccc(N(C)C)cc2)cc1 (tested in a mixture with another compound)" system_name="COLO 205 colon" category=True
molecule=CN(C)c1ccc(N=Nc2cccc3ccccc23)cc1 system_name="COLO 205 colon" category=False
molecule=Cn1c2c(c3ccccc31)CCN1C[C@@H]3CCCC[C@H]3C[C@@H]21 system_name="COLO 205 colon" category=True
molecule=CCN1/C(=C\c2cc[n+](CC)c3ccccc23)C=Cc2ccccc21 system_name="COLO 205 colon" category=True
molecule=N#CSCc1ccc(CSC#N)c(Cl)c1 system_name="COLO 205 colon" category=False
molecule=O=[N+]([O-])c1ccc2c(N=Nc3ccc4ccccc4c3O)c(O)cc(S(=O)(=O)O)c2c1 system_name="COLO 205 colon" category=False
molecule=COc1ccc2nc3cc(Cl)ccc3c(NCCNc3c4ccc(Cl)cc4nc4ccc(OC)cc34)c2c1 system_name="COLO 205 colon" category=True
molecule=CN(C)CCOc1ccc2c(c1)C(=O)/C(=C\c1ncc([N+](=O)[O-])n1C)C2 system_name="COLO 205 colon" category=True

###

System: MOLT-4 leukemia
Assay: NCI-60 one-dose screen, 48 h
Settings: 10 µM unless noted
Compounds without any hit were thinned out: in the full panel of roughly 83,000, 20% have a hit. Activity calls are given as the source filed them. Rule for the calls: active = growth percent below 10; inactive = the rest.
Outcomes: 1 for active, 0 for inactive

molecule=C=C(Cl)C(=NC(C)(C)C)Nc1ccccc1C system_name="MOLT-4 leukemia" category=0
molecule=COc1cc(/C=C(/C)C[N+](=O)[O-])ccc1O system_name="MOLT-4 leukemia" category=0
molecule="CCC(CCCN(CC)CCc1ccccc1)OC(=O)c1cc(OC)c(OC)c(OC)c1 (configuration not stated)" system_name="MOLT-4 leukemia" category=0
molecule="CCC1OC(OC)C=CC1=O (configuration not stated)" system_name="MOLT-4 leukemia" category=0
molecule=C[n+]1c(/C=C/c2ccc([N+](=O)[O-])cc2)ccc2ccccc21 system_name="MOLT-4 leukemia" category=0
molecule=CCCCCC(CCCCC)C(=O)O system_name="MOLT-4 leukemia" category=0
molecule=O=[N+]([O-])c1ccc(N=Nc2ccc(O)cc2O)cc1 system_name="MOLT-4 leukemia" category=0
molecule="O=C1C2=C(Nc3cc([N+](=O)[O-])ccc3N2)OC1c1c2ccccc2cc2ccccc12 (configuration not stated)" system_name="MOLT-4 leukemia" category=1
molecule=O=C1c2ccccc2C(=O)c2sc(Nc3ccc(Cl)cc3)nc21 system_name="MOLT-4 leukemia" category=1
molecule=CCC(CC)COC(=O)c1ccc(O)c(O)c1 system_name="MOLT-4 leukemia" category=0
molecule=O=C(Nc1ccc(F)cc1)ON=C1CCCCC1 system_name="MOLT-4 leukemia" category=0
molecule=CC(=O)ON=C1C=CC(=C(C#N)c2ccccc2)C=C1 system_name="MOLT-4 leukemia" category=0
